Tested on: serotonin 1A receptor (Rattus norvegicus)
Sequence (P19327 1-422): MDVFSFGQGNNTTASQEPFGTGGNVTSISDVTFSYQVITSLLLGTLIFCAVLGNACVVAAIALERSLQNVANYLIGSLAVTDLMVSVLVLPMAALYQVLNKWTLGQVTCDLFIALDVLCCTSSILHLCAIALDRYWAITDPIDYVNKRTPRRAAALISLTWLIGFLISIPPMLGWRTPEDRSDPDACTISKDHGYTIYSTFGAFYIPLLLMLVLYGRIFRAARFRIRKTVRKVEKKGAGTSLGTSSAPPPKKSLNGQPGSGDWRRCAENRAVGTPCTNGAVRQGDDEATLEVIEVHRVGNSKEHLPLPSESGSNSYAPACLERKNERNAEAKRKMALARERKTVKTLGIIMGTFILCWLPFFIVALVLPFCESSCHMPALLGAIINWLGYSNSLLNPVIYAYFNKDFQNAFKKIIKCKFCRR
Where a name gives a salt, the structure may show the parent alone.
Measured quantity: Ki
Could you write the number and then its unit?

Fc1ccc(CCN2CCC(N3CCc4ccccc43)CC2)cc1	3 nM

Entry O=C(c1cccnc1)c1ccc2c(c1)N(C1CCN(CCc3ccc(F)cc3)CC1)CC2 has what Ki?
1.18 nM

Now the same for O=C1CNC(=O)N1Cc1ccc2ccn(C3CCN(CCc4ccc(F)cc4)CC3)c2c1
0.78 nM

Now the same for CCN1CCC(Cc2ccc3c(c2)N(C2CCN(CCc4ccc(F)cc4)CC2)CC3)CC1
16.4 nM

Now the same for COc1ccc2c(c1)C(N1CCN(CCc3ccc(F)cc3)CC1)CC2 (stereo not drawn) [Example 250, Hydrochloride]
1.6 nM

Now the same for COc1ccc(CCN2CCC(N3CCc4ccc(OC)cc43)CC2)cc1
0.34 nM

Now the same for CCNC(=O)Cc1ccc2ccn(C3CCN(CCc4ccc(F)cc4)CC3)c2c1
1.05 nM

Now the same for CCN1CC[C@H](N2CCc3ccccc32)[C@@H](COCc2ccc(F)cc2)C1 (relative stereo)
170 nM

Now the same for COc1ccc2c(c1)C(N1CCN(CC(=O)c3ccc(F)cc3)CC1)CCC2 (stereo not drawn) [Example 281, Hydrochloride]
35.2 nM

====

Tested on: serotonin 1A receptor (Rattus norvegicus)
Note to self: Ki under 8 nM means yes (1), ties and anything higher get no (0).

For NC(=O)c1ccc2ccn(C3CCN(CCc4ccc(F)cc4)CC3)c2c1 [Example 337] , is the recorded Ki below the cut-off of 8 nM?
yes (1)

Now the same for CCNC(=O)Cc1ccc2ccn(C3CCN(CCc4ccccc4F)CC3)c2c1 [Example 344]
yes (1)

Now the same for O=C(Cc1ccc2ccn(C3CCN(CCc4ccccc4F)CC3)c2c1)NCCO [Example 346]
no (0)

====

# Lookup of reported Ki keyed by entry
Tested on: serotonin 2 receptor (Rattus norvegicus)
Sequence (P14842 whole entry): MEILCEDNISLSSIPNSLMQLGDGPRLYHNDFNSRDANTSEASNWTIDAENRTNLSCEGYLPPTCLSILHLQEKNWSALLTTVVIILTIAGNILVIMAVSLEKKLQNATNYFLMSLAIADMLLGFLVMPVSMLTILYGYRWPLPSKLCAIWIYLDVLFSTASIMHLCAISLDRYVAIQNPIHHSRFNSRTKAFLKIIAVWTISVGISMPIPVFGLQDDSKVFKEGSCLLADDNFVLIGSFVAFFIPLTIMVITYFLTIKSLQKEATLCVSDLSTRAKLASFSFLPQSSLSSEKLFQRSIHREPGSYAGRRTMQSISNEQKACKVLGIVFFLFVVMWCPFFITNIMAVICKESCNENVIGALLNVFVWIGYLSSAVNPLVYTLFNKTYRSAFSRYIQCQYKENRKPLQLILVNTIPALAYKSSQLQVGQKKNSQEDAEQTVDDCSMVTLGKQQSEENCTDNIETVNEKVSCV
Assay method text: Binding test on [3H] ketanserin (serotonin 2 receptor)
Test settings: [3H] ketanserin 0.3 nM, receptor fraction of rat cerebral cortex; read-out: 5HT2
Express your answer in nM, writing the number without its unit.

Guide cases for Ki, answers given:
FC(F)(F)c1ccc(CCN2CCC(N3CCc4ccccc43)CC2)cc1	28.8
COc1cccc(C(O)c2ccc3c(c2)N(C2CCN(CCc4ccc(F)cc4)CC2)CC3)n1 (stereo not shown)	3.32
O=S(=O)(CCCCl)NCc1ccc2ccn(C3CCN(CCc4ccc(F)cc4)CC3)c2c1	10.9
COc1cccc2c1CCN2C1CCN(CCc2ccc(F)cc2)CC1	17.4
Fc1ccc(CCN2CCC(N3CCc4ccccc43)CC2)cc1F	27.9
CCC(O)c1ccc2ccn(C3CCN(CCc4ccc(F)cc4)CC3)c2c1 (stereo not shown)	24.5
Fc1ccc(CCN2CCC(N3CCc4ccc(-c5nccs5)cc43)CC2)cc1	52.4
NC(=O)Cc1ccc2ccn(C3CCN(CCc4ccc(F)cc4F)CC3)c2c1	2.54

Entry CS(=O)(=O)Nc1ccc2c(c1)N(C1CCN(CCc3ccc(F)cc3)CC1)CC2 has what Ki?
14.3

Now the same for Fc1ccc(CCCCN2CCC(N3CCc4ccccc43)CC2)cc1
28.6

Now the same for O=C(CO)NCc1ccc2ccn(C3CCN(CCc4ccc(F)cc4)CC3)c2c1
4.23

Now the same for O=C(NCc1ccc2c(c1)N(C1CCN(CCc3ccc(F)cc3)CC1)CC2)C1CC1
0.76

Now the same for CC(C)CNC(=O)Cc1ccc2c(c1)N(C1CCN(CCc3ccc(F)cc3)CC1)CC2
0.27

Where do the numbers come from? From patent US6579881B2.
